Molecular target: recombinant human GR (Homo sapiens, UniProt P04150)
Construct: purchased Panvera/Invitrogen P2812 (kit P2893)
Sequence (P04150 whole entry): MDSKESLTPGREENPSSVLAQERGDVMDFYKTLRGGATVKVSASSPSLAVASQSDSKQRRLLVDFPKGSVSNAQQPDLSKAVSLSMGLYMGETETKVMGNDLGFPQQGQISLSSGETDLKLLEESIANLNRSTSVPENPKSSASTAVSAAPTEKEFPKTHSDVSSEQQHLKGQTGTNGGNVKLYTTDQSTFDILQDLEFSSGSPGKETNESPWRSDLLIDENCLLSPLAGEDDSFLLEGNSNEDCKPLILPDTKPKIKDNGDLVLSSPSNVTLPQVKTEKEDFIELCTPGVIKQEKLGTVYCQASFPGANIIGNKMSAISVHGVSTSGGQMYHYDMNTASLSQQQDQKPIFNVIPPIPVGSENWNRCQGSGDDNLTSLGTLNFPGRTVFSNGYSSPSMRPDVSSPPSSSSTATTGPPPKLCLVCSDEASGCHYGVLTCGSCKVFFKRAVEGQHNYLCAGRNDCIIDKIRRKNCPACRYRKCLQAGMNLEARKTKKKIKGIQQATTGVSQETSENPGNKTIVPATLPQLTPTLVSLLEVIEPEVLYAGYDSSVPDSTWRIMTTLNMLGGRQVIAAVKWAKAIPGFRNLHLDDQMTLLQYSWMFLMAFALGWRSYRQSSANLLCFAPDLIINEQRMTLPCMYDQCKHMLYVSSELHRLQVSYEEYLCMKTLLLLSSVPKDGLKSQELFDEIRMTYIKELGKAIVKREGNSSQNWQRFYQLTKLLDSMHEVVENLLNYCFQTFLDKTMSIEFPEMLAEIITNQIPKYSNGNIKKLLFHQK
Test: Human Glucocorticoid Receptor (GR) Assay (fluorescence polarization, Panvera/Invitrogen kit)
Format: binding
Settings: fluorescence polarization; GS Red tracer; 2 hours at room temperature; 100% control 10 μM Dexamethasone; read-out: Inhibition of GR binding, IC50
Mark 1 for IC50 under 5 nM, -1 if at or over.

# compound, measuredOn, groupLabel
records = [
    ("Cc1ncsc1C(=O)O[C@]1(C(=O)SCC#N)CC[C@H]2[C@@H]3CCC4=Cc5c(cnn5-c5ccc(F)cc5)C[C@]4(C)[C@H]3[C@@H](O)C[C@@]21C [Example 2]", "recombinant human GR (Homo sapiens, UniProt P04150)", -1),
    ("CC(=O)OCC(=O)O[C@]1(C(=O)SCC#N)CC[C@H]2[C@@H]3CCC4=Cc5c(cnn5-c5ccc(F)cc5)C[C@]4(C)[C@H]3[C@@H](O)C[C@@]21C [Example 29]", "recombinant human GR (Homo sapiens, UniProt P04150)", -1),
    ("C[C@]12Cc3cnn(-c4ccc(F)cc4)c3C=C1CC[C@@H]1[C@@H]2[C@@H](O)C[C@@]2(C)[C@H]1CC[C@]2(OC(=O)c1ccno1)C(=O)SCF [Example 60]", "recombinant human GR (Homo sapiens, UniProt P04150)", 1),
    ("C[C@]12Cc3cnn(-c4ccc(F)nc4)c3C=C1CC[C@H]1[C@@H]3CC[C@](OC(=O)C4CC4)(C(=O)SCF)[C@@]3(C)C[C@H](O)[C@@]12F [Example 208]", "recombinant human GR (Homo sapiens, UniProt P04150)", 1),
]
